- Test system: AR 1.0 cells
- protocol_details: Potentiation index with doxorubicin titration
- Format: cell-based, mouse
- condition_summary: Table C2, RMA 300 nM
measured_quantity: Potentiation Index at RMA concentration 300 nM
Numbers only.

# example entries with known answers
structure=COc1cc2c(cc1OC)CN(CCc1ccc(NC(=O)c3ccccc3NC(=O)c3cccc(F)c3)cc1)CC2 measurement=300
structure=COc1cc2c(cc1OC)CN(CCc1ccc(NC(=O)c3ccccc3NC(=O)c3ccc(C)cc3)cc1)CC2 measurement=150
structure=COc1cc2c(cc1OC)CN(CCc1ccc(NC(=O)c3ccccc3NC(=O)c3cnc4ccccc4n3)cc1)CC2 measurement=160
structure=COc1cc2c(cc1OC)CN(CCc1ccc(NC(=O)c3ccccc3NC(=O)c3cc4ccccc4o3)cc1)CC2 measurement=128
structure=COc1ccc(C(=O)Nc2ccccc2C(=O)Nc2ccc(CCN3CCc4cc(OC)c(OC)cc4C3)cc2)cc1 measurement=120
structure=COc1cc2c(cc1OC)CN(CCc1ccc(NC(=O)c3ccccc3NC(=O)c3ccc(C4CCCCC4)cc3)cc1)CC2 measurement=13

What does the record list as Potentiation Index at RMA concentration 300 nM for `COc1cc2c(cc1OC)CN(CCc1ccc(NC(=O)c3ccc([N+](=O)[O-])cc3NC(=O)c3cnc4ccccc4n3)cc1)CC2` ? 160

###

- System: AR 1.0 cells
- protocol_details: Potentiation index with doxorubicin titration
- Assay type: cell-based, mouse
- condition_summary: Table C1, RMA 10 nM
Assign Potentiation Index at RMA concentration 10 nM to each entry below.
One number for each entry.

structure=COc1cc2c(cc1OC)CN(CCc1ccc(NC(=O)c3nccnc3NC(=O)c3cnc4ccccc4c3)cc1)CC2 measurement=1.8
structure=COc1ccc(CN2CCc3ccc(NC(=O)c4ccccc4NC(=O)c4cnc5ccccc5n4)cc3C2)cc1OC measurement=2
structure=COc1cc2c(cc1OC)CN(CCc1cccc(NC(=O)c3ccccc3NC(=O)c3cnc4ccccc4c3)c1)CC2 measurement=1.0
structure=COc1cc2c(cc1OC)CN(CCc1ccc(NC(=O)c3ccccc3NC(=O)c3cnc4ccccc4c3)c(C)c1)CC2 measurement=3
structure=COc1ccc(CN(C)CCc2ccc(NC(=O)c3ccc(Cl)cc3NC(=O)c3cnc4ccccc4c3)cc2)cc1OC measurement=50

Would you mind listing Potentiation Index at RMA concentration 10 nM for each of the following molecules?
1. COc1ccc(CN(C)CCc2ccc(NC(=O)c3ccccc3NC(=O)c3cnc4ccccc4c3)cc2)cc1OC(C)C
2. COc1ccc(CCN(C)CCc2ccc(NC(=O)c3ccccc3NC(=O)c3cnc4ccccc4c3)cc2)cc1OC

2.6
1

###

- Tested on: AR 1.0 cells
- protocol_details: Potentiation of doxorubicin toxicity: proliferation assay (sulphorhodamine B)
- Type: cell-based, mouse
- condition_summary: with fixed doxorubicin 0.34 μm; four days; 5760 min; read-out: Toxicity with Cytotoxic Agent (IC50)
measured_quantity: log10(IC50) (log10 of the value in nM)
Field: value | Transform: log10 | Quantity: IC50 | Unit: nM

molecule="COc1cc2c(cc1OC)CN(CCc1ccc(NC(=O)c3ccccc3NC(=O)c3ccsc3)cc1)CC2 [compound 9492]" measurement=1.30
molecule="COc1cc2c(cc1OC)CN(CCc1ccc(NC(=O)c3ccccc3NC(=O)c3cccc(O)c3)cc1)CC2 [compound 9549]" measurement=2.72

Would you mind listing log10(IC50) for each of the following molecules?
1. COc1cc2c(cc1OC)CN(CCc1ccc(NC(=O)c3ccccc3NC(=O)c3ccc(Cl)c(Cl)c3)cc1)CC2 [compound 9536]
2. COc1cc2c(cc1OC)CN(CCc1ccc(NC(=O)c3ccccc3NC(=O)c3ccc(OC(C)=O)cc3)cc1)CC2 [compound 9548]
3. COc1cc2c(cc1OC)CN(CCc1ccc(NC(=O)c3ccccc3NC(=O)c3cnc(C)cn3)cc1)CC2 [compound 9527]
4. COc1cc2c(cc1OC)CN(CCc1ccc(NC(=O)c3ccccc3NC(=O)c3ccc(C4CCCCC4)cc3)cc1)CC2 [compound 9461]
5. COc1cc2c(cc1OC)CN(CCNC(=O)c1ccc([N+](=O)[O-])cc1NC(=O)c1ccc(C(C)C)cc1)CC2 [compound 9420]

[1.18, 3.00, 0.85, 2.48, 2.60]
